Reference source: BindingDB's records for doi:10.1016/j.ejmech.2021.113795

Assay: Inhibition of MRP1 in human 2008/MRP1 cells assessed as reversal of doxorubicin resistance by measuring doxorubicin IC50 at 1 uM after 5 days by Cell Titer-Glo luminescence assay
value kind: pIC50
Just so you know, pIC50 here is -log10 of the concentration in molar units; reply with that number alone.

Record COc1cc(OC)c2c(c1)O[C@H](c1ccc(OC)c(OC)c1)[C@H](OC(=O)c1ccc(F)c(NC(=O)c3cc(OC)c(OC)c(OC)c3)c1)C2 , field pIC50: 6.47

// next item, pIC50 requested
Record COc1cc(OC)c2c(c1)O[C@H](c1ccc(OC)c(OC)c1)[C@@H](OC(=O)c1ccc(F)c(NC(=O)c3cc(OC)c(OC)c(OC)c3)c1)C2 , field pIC50: 6.45
